Assay: protein stability index of a GFP-peptide fusion (yeast GPS) (PSI 1-4); higher = more stable; sorted into four equal gates, so the index is relative within each strain
Details: doa10∆
Measured protein stability index determines class: lower level (below 2), middle level (2 to below 3), upper level (3 or more)

Ask: For this sequence, which bin applies? DPNNPVDFDGLDIKRVG [SNF12]
Result: upper level

Ask: For this sequence, which bin applies? PVLDNPFTNEAHMWPRV [POP3]
Result: upper level

Ask: For this sequence, which bin applies? LFGENDTSTQAYEEEEE [NUT1]
Result: upper level

Ask: For this sequence, which bin applies? ENEDGNIEERKEKIQHE [BRR2]
Result: upper level

Ask: For this sequence, which bin applies? TNILTKVDINADSAVNR [PRP28]
Result: upper level

Ask: For this sequence, which bin applies? NGTISKTGKKNKVAKKN [SRP14]
Result: upper level

Ask: For this sequence, which bin applies? SPYERRLIDLIRNSGEK [RPL36A]
Result: lower level

Ask: For this sequence, which bin applies? IQYVTYLLTQQQIWKSP [SOH1]
Result: middle level

Ask: For this sequence, which bin applies? YPRLQDPSRELNVIIDQ [YCS4]
Result: upper level

Ask: For this sequence, which bin applies? TRHQNTIHAKRKIVFRC [RPN4]
Result: middle level

Ask: For this sequence, which bin applies? VSDDESNGEVLEVGKNN [RPN14]
Result: upper level

Ask: For this sequence, which bin applies? EEESLHVFQYANRPRLV [RPC37]
Result: lower level

Ask: For this sequence, which bin applies? LSESDKKSKLISLYLLN [RPN12]
Result: middle level

Ask: For this sequence, which bin applies? KLPLLNESLIPLINLAL [YML103C/NUP188]
Result: lower level

Ask: For this sequence, which bin applies? NILPFLWGPHGLNSDAE [ECM29]
Result: middle level

Ask: For this sequence, which bin applies? VTIASEIYYDPDPRSTV [RPO21]
Result: middle level

Ask: For this sequence, which bin applies? MPPKQQLSKAAKAAAAL [RPS25A]
Result: lower level

Ask: For this sequence, which bin applies? KGKKGQKKRVVDPFTRK [RPS1A]
Result: upper level

Ask: For this sequence, which bin applies? KELDALQEKEQLYFKKK [ISW2]
Result: upper level

Ask: For this sequence, which bin applies? DLALKMGVPIYGIVAMA [FAS2]
Result: lower level

Ask: For this sequence, which bin applies? SYEVEHVIQIPLNKPLL [TAF14]
Result: middle level

Ask: For this sequence, which bin applies? VNYNSDMIKCFLPKLNS [NUT1]
Result: middle level

Ask: For this sequence, which bin applies? QSFQNPFTASQSNINTN [YIL149C/MLP2]
Result: middle level

Ask: For this sequence, which bin applies? HLVWMKGTNDEGTSISV [YCS4]
Result: lower level
